meta.source: the supplement of paper PMC10567573

B1: FAM164A (parent)
chain: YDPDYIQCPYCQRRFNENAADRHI

# Variants of: B1
# MEASUREMENT_NOTES: protein stability index of a GFP-peptide fusion (GPS, HEK-293T) (PSI 1-6); higher = more stable;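 note: lentivirally expressed fusions sorted by FACS into six bins by GFP to DsRed ratio, PSI derived from sequencing read proportions per bin multiplied by bin number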
# PARTICULARS: c terminus: a fixed tail appended
// label = satisfied if protein stability index is not less than 4, otherwise not satisfied

Sample answers from the record:
# MUTATION_NOTATION, QUALITATIVE_LABEL
records = [
    ("P9S", "not satisfied"),
    ("I24A", "satisfied"),
    ("E17D", "satisfied"),
    ("D2E", "satisfied"),
    ("D21K", "satisfied"),
    ("Y1A", "satisfied"),
]

Prompt line: Does N18W have a reported protein stability index of at least 4?
Response line: not satisfied

Prompt line: Does P3W have a reported protein stability index of at least 4?
Response line: not satisfied

Prompt line: Does E17A have a reported protein stability index of at least 4?
Response line: satisfied

Prompt line: Does A19G have a reported protein stability index of at least 4?
Response line: satisfied

Prompt line: Does E17M have a reported protein stability index of at least 4?
Response line: satisfied

Prompt line: Does D21E have a reported protein stability index of at least 4?
Response line: satisfied

Prompt line: Does R22Q have a reported protein stability index of at least 4?
Response line: satisfied

Prompt line: Does P9T have a reported protein stability index of at least 4?
Response line: not satisfied

Prompt line: Does H23S have a reported protein stability index of at least 4?
Response line: not satisfied

Prompt line: Does F15P have a reported protein stability index of at least 4?
Response line: not satisfied

Prompt line: Does Q12M have a reported protein stability index of at least 4?
Response line: not satisfied

Prompt line: Does Y5M have a reported protein stability index of at least 4?
Response line: satisfied

Prompt line: Does Y1F have a reported protein stability index of at least 4?
Response line: not satisfied

Prompt line: Does R13I have a reported protein stability index of at least 4?
Response line: not satisfied

Prompt line: Does D4C have a reported protein stability index of at least 4?
Response line: not satisfied

Prompt line: Does Y5H have a reported protein stability index of at least 4?
Response line: not satisfied
